Origin of measurements: patent US20070049620A1

Listing of recorded melting point by entry.

Examples from the recorded data:
CCCNC(=O)c1ccc([C@@H]2C[C@H]3C=C(c4c[nH]c(-c5ccc(F)cc5)c4-c4ccncc4)CCN3C2)cc1: 190 to 192 °C
O=C(NC1CC1)c1ccc([C@@H]2C[C@H]3C=C(c4c[nH]c(-c5ccc(F)cc5)c4-c4ccncc4)CCN3C2)cc1: 200 to 202 °C

API: the following record is the query input.
Task item: Annotate the molecule O=C(NCc1ccccc1)c1ccc([C@@H]2C[C@H]3C=C(c4c[nH]c(-c5ccc(F)cc5)c4-c4ccncc4)CCN3C2)cc1 with its measured melting point.
Reply: 173 to 175 °C

* * *

melting point: recorded values

COCCNC(=O)c1ccc([C@@H]2C[C@H]3C=C(c4c[nH]c(-c5ccc(F)cc5)c4-c4ccncc4)CCN3C2)cc1 [Example 61]: 166 to 168 °C

Task item: Determine its reported melting point: CC(C)NC(=O)c1ccc([C@@H]2C[C@H]3C=C(c4c[nH]c(-c5ccc(F)cc5)c4-c4ccncc4)CCN3C2)cc1 [Example 59]
Reply: 202 to 204 °C

Task item: Provide melting point value for the following compound: CCNC(=O)c1ccc([C@@H]2C[C@H]3C=C(c4c[nH]c(-c5ccc(F)cc5)c4-c4ccncc4)CCN3C2)cc1 [Example 54]
Reply: 178 to 180 °C

Task item: Read off the recorded melting point for O=C(NCCF)c1ccc([C@@H]2C[C@H]3C=C(c4c[nH]c(-c5ccc(F)cc5)c4-c4ccncc4)CCN3C2)cc1 [Example 57]
Reply: 183 to 185 °C

Task item: Fill in reported melting point for this entry: CNC(=O)c1ccc([C@@H]2C[C@H]3C=C(c4c[nH]c(-c5ccc(F)cc5)c4-c4ccncc4)CCN3C2)cc1 [Example 53]
Reply: 171 to 173 °C
